The measured values listed here are drawn from patent US20120129811A1.

Target: proMMP9(67-444;ΔFnII) (SEQ ID NO:5) (Homo sapiens, UniProt P14780, DEL216-390)
Construct: start methionine (N)
Sequence (P14780 with tags, fused parts or gaps DEL216-390): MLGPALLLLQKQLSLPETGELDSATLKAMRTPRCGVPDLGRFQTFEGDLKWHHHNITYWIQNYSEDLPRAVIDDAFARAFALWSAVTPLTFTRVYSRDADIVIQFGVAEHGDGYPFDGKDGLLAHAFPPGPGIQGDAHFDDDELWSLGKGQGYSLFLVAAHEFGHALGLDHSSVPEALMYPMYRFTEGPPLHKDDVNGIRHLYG
Test: ThermoFluor binding assay with proMMP9(67-444;ΔFnII)
observation type: Kd (nM)

These recorded examples may help you get a feel for the data.
[[record]]
smiles = "COc1ccc(F)cc1Nc1nc2c(ccc3c2ncn3C)s1"
system_name = "proMMP9(67-444;ΔFnII) (SEQ ID NO:5) (Homo sapiens, UniProt P14780, DEL216-390)"
observation_type = "Kd"
reported_measurement = 35

[[record]]
smiles = "COc1c(F)cc(F)cc1Nc1nc2c(ccc3c2ncn3C)s1"
system_name = "proMMP9(67-444;ΔFnII) (SEQ ID NO:5) (Homo sapiens, UniProt P14780, DEL216-390)"
observation_type = "Kd"
reported_measurement = 450

[[record]]
smiles = "COc1ccccc1Nc1nc2c(ccc3nc(C)n(C)c32)s1"
system_name = "proMMP9(67-444;ΔFnII) (SEQ ID NO:5) (Homo sapiens, UniProt P14780, DEL216-390)"
observation_type = "Kd"
reported_measurement = 2800

[[record]]
smiles = "CNS(=O)(=O)c1ccc(OC)c(Nc2nc3c(ccc4c3ncn4C)s2)c1"
system_name = "proMMP9(67-444;ΔFnII) (SEQ ID NO:5) (Homo sapiens, UniProt P14780, DEL216-390)"
observation_type = "Kd"
reported_measurement = 1100


(P) COc1ccc(C(F)(F)F)cc1Nc1nc2c(ccc3c2ncn3C)s1
(Q) COc1ccc(C(N)=O)cc1Nc1nc2c(s1)CCc1ncccc1-2
(R) CCn1c(C)nc2ccc3sc(Nc4cnccc4OC(C)C)nc3c21
(S) CCOc1ccccc1Nc1nc2c(ccc3c2ncn3C)s1
(T) COc1c(Nc2nc3c(ccc4c3ncn4C)s2)cc(C(N)=O)cc1C(F)(F)F
query: Arrange the 5 compounds by rising Kd, starting with the smallest. Record the ranking as a list of labels in the requested order.
result: R, S, P, Q, T
